B1: RAB40A (parent)
chain: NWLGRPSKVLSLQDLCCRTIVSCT

- Variants of: B1
- assay.notes: protein stability index of a GFP-peptide fusion (GPS, HEK-293T) (PSI 1-6); higher = more stable;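 note: lentivirally expressed fusions sorted by FACS into six bins by GFP to DsRed ratio, PSI derived from sequencing read proportions per bin multiplied by bin number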
- details: c terminus: a fixed tail appended
observation.type: protein stability index
Answer using only a numeral; do not append any unit.

// query // protein stability index lookup, key: K8C
// result 2.08

// query // protein stability index lookup, key: T19N
// result 2.91

// query // protein stability index lookup, key: D14N
// result 2.29

// query // protein stability index lookup, key: V9S
// result 2.05

// query // protein stability index lookup, key: T24D
// result 2.85

// query // protein stability index lookup, key: D14K
// result 1.9

// query // protein stability index lookup, key: T24H
// result 2.64

// query // protein stability index lookup, key: C16K
// result 2.25

// query // protein stability index lookup, key: Q13A
// result 2.86

// query // protein stability index lookup, key: G4E
// result 2.77

// query // protein stability index lookup, key: C16Y
// result 1.44

// query // protein stability index lookup, key: V21M
// result 2.66

// query // protein stability index lookup, key: I20G
// result 2.47

// query // protein stability index lookup, key: I20W
// result 2.18

// query // protein stability index lookup, key: C16S
// result 2.31

// query // protein stability index lookup, key: S22C
// result 2.59

// query // protein stability index lookup, key: T24R
// result 2.89

// query // protein stability index lookup, key: R18L
// result 2.11

// query // protein stability index lookup, key: L12V
// result 2.87

// query // protein stability index lookup, key: C16G
// result 1.44

// query // protein stability index lookup, key: T19W
// result 1.97

// query // protein stability index lookup, key: L15I
// result 2.31

// query // protein stability index lookup, key: L12Y
// result 3.31

// query // protein stability index lookup, key: W2F
// result 2.64

// query // protein stability index lookup, key: L3Q
// result 2.85

// query // protein stability index lookup, key: Q13R
// result 3.23

// query // protein stability index lookup, key: L3R
// result 2.56

// query // protein stability index lookup, key: L15T
// result 1.92

// query // protein stability index lookup, key: N1P
// result 2.35

// query // protein stability index lookup, key: L15R
// result 2.51

// query // protein stability index lookup, key: T24V
// result 2.28

// query // protein stability index lookup, key: S22L
// result 2.31

// query // protein stability index lookup, key: S7P
// result 2.27

// query // protein stability index lookup, key: C16Q
// result 1.51

// query // protein stability index lookup, key: Q13W
// result 2.82

// query // protein stability index lookup, key: G4Q
// result 2.34

// query // protein stability index lookup, key: S22M
// result 2.61

// query // protein stability index lookup, key: K8T
// result 1.88

// query // protein stability index lookup, key: C23E
// result 2.8

// query // protein stability index lookup, key: D14W
// result 1.84

// query // protein stability index lookup, key: C17T
// result 3.23

// query // protein stability index lookup, key: C16F
// result 2.44

// query // protein stability index lookup, key: L10C
// result 2.04

// query // protein stability index lookup, key: L12S
// result 1.73

// query // protein stability index lookup, key: S7M
// result 2.03

// query // protein stability index lookup, key: T19E
// result 2.53

// query // protein stability index lookup, key: S11H
// result 1.92

// query // protein stability index lookup, key: R18S
// result 2.58

// query // protein stability index lookup, key: G4D
// result 2.57

// query // protein stability index lookup, key: N1I
// result 1.84

// query // protein stability index lookup, key: S7A
// result 2.24

// query // protein stability index lookup, key: L3H
// result 2.3

// query // protein stability index lookup, key: I20F
// result 1.89

// query // protein stability index lookup, key: Q13M
// result 2.12

// query // protein stability index lookup, key: L10T
// result 2.49

// query // protein stability index lookup, key: R18H
// result 1.98

// query // protein stability index lookup, key: V21F
// result 2.43

// query // protein stability index lookup, key: V21L
// result 2.04

// query // protein stability index lookup, key: C23Y
// result 2.35

// query // protein stability index lookup, key: T24Y
// result 2.13

// query // protein stability index lookup, key: W2D
// result 3.7

// query // protein stability index lookup, key: L10W
// result 1.93

// query // protein stability index lookup, key: V21R
// result 3.04

// query // protein stability index lookup, key: V21K
// result 2.55

// query // protein stability index lookup, key: C23W
// result 2.67

// query // protein stability index lookup, key: S22K
// result 2.75

// query // protein stability index lookup, key: W2R
// result 3

// query // protein stability index lookup, key: P6S
// result 2.38

// query // protein stability index lookup, key: S11Q
// result 2.11

// query // protein stability index lookup, key: I20C
// result 2.32

// query // protein stability index lookup, key: L10Y
// result 2.43

// query // protein stability index lookup, key: N1E
// result 2.6

// query // protein stability index lookup, key: C16W
// result 2.79

// query // protein stability index lookup, key: C23I
// result 2.33

// query // protein stability index lookup, key: L15N
// result 2.18

// query // protein stability index lookup, key: W2P
// result 2.81
